Target: SARS-CoV-2 receptor binding domain (RBD), wild type (SARS-CoV-2, UniProt P0DTC2 319-539)
Test: ELISA, RBD protein coated, mAb titrated
Recorded measurements of EC50, one per entry
# unit: µg/mL | format: bare number

Here are 4 binders together with their reported answers.
Bench note: what EC50 did C060 (antibody, V domains shown) VH: EVQLVESGGGLVQPGGSQRLSCAASGFTVSSNYMSWIRQAPGKGLEWVSVIYSGGSAYYVDSVKGRFTISRDNSKNTLYLQMNSLRPEDTAVYYCARIANYMDVWGKGTTVTVSS VL: EIVMTQSPATLSVSPGERATLSCRASQSVSSHLAWYQQKPGQAPRLLIYGASTRATGIPTRFSGSGSGTEFTLTISSLQSEDFAVYYCQQYNNWPPLTFGGGTKVEIK show?
0.0435

Next binder: C065 (antibody, V domains shown) VH: QVQLQESGPGLVKPSQTLSLTCTVSGGSISSSNYYWSWIRQHPGKGLEWIGYIDYSGGTYYNPSLKSRVTISVDTSKNQFSLKLSSVTAADTAVYYCARVSTTVTTYLVGGFDIWGQGTMVTVSS VL: IRMTQSPSSLSASVGDRVTITCQASQDITNYLNWYQQKPGKAPKLLLYDASNLETGVPSRFSGSGSGTDFTFTISSLQPEDIATYYCQQYDNLPWTFGQGTKVEIK
0.0291

Could you do the same for C067 (antibody, V domains shown) VH: VQLVESGGGVVQPGRSLRLSCAASGFSFRIFGMNWVRQAPGKGLDWVAGISHDGSDKYFADSVKGRFTISRDNSKNTLYLQMNSLRADDTAVYYCARDMEVDYYDRSGHYHVFHAFDIWGQGTMVTVSS VL: DIVMTQSPDSLAVSLGARATINCKSSQSILYSSDNKSSLAWYQQKPGHPPKLLIYWASTRESGVPDRFSGSESGTDFTLTISNLQGEDVAVYYCQQYYSIPRSFGQGTKLEIK , please?
0.00698

Do the same for C064 (antibody, V domains shown) VH: EVQLLESGGDLVQPGGSLRLSCAASGFTFSNYAMSWVRQAPGKGLEWVSAISGSGGNTYYADSVKGRFTISRDNSKNTLYLQMNSLRAEDTAVYYCAKAVHYGGNSDRRFSEPSAPFDYWGQGTLVTVSS VL: QSALTQPASVSGSPGQSITISCTGTSSDVGSYNLVSWYQQHPGKAPKLMIYEGSKRPSGVSNRFSGSKSGNTASLTISGLQAEDEADYYCCSYAGSSTPYVFGTGTKVTVL please
0.363

// next item, EC50 requested
Which EC50 is listed for C035 (antibody, V domains shown) VH: EVQLVESGGGLVQPGGSLRLSCAASGFIFSSYWMTWVRQAPGKGLEWVASIKYNGNERNYVDSVKGRFTISRDNARNSLFLQLNNLGAEDTAVYYCARQPESTIWYYFDYWGQGTLVTVSS VL: SYELTQPPSVSVSPGQTARVTCSGHALPDQYTYWYQQRPGRAPVLVIYVNNQRPSGIPDRFSATTSGTTVTLTISGVQAEDEADYYCQSADSSGSYVVFGGGTKLTVL ?
0.0152
